// provenance: BigSolDB 2.1

Settings: in isobutanol, 288.15 K

{"columns": ["Sample Smiles", "solubility (mole fraction)"],
 "data": [
  ["CCOc1ccccc1C(N)=O", 0.00816]
]}

###

Settings: in acetonitrile, 298.15 K
Observable: solubility (mole fraction)

{"columns": ["Sample Smiles", "Test Value"],
 "data": [
  ["CCOc1ccccc1C(N)=O", 0.0101]
]}

###

Details: in methanol, 313.15 K
Observable: solubility (mole fraction)

{"columns": ["Sample Smiles", "Test Value"],
 "data": [
  ["CCOc1ccccc1C(N)=O", 0.0402]
]}

###

Conditions: in isobutanol, 308.15 K
Observable: solubility (mole fraction)

{"columns": ["Sample Smiles", "Test Value"],
 "data": [
  ["CCOc1ccccc1C(N)=O", 0.0208]
]}

###

Conditions: in ethanol, 293.15 K
Observable: solubility (mole fraction)

{"columns": ["Sample Smiles", "Observable", "Test Value"],
 "data": [
  ["CCOc1ccccc1C(N)=O", "solubility (mole fraction)", 0.0137]
]}

###

Conditions: in methanol, 308.15 K

{"columns": ["Sample Smiles", "solubility (mole fraction)"],
 "data": [
  ["CCOc1ccccc1C(N)=O", 0.0328]
]}

###

Settings: in methanol, 288.15 K
Observable: solubility (mole fraction)

{"columns": ["Sample Smiles", "Test Value"],
 "data": [
  ["CCOc1ccccc1C(N)=O", 0.0154]
]}

###

Details: in n-propanol, 323.15 K
Observable: solubility (mole fraction)

{"columns": ["Sample Smiles", "Test Value"],
 "data": [
  ["CCOc1ccccc1C(N)=O", 0.0502]
]}

###

Conditions: in n-propanol, 303.15 K
Observable: solubility (mole fraction)

{"columns": ["Sample Smiles", "Test Value"],
 "data": [
  ["CCOc1ccccc1C(N)=O", 0.0179]
]}

###

Settings: in acetonitrile, 313.15 K

{"columns": ["Sample Smiles", "solubility (mole fraction)"],
 "data": [
  ["CCOc1ccccc1C(N)=O", 0.0231]
]}

###

Conditions: in acetonitrile, 293.15 K

{"columns": ["Sample Smiles", "solubility (mole fraction)"],
 "data": [
  ["CCOc1ccccc1C(N)=O", 0.0075]
]}

###

Details: in ethanol, 303.15 K

{"columns": ["Sample Smiles", "solubility (mole fraction)"],
 "data": [
  ["CCOc1ccccc1C(N)=O", 0.0211]
]}

###

Settings: in n-propanol, 288.15 K

{"columns": ["Sample Smiles", "solubility (mole fraction)"],
 "data": [
  ["CCOc1ccccc1C(N)=O", 0.00832]
]}

###

Conditions: in ethanol, 298.15 K

{"columns": ["Sample Smiles", "solubility (mole fraction)"],
 "data": [
  ["CCOc1ccccc1C(N)=O", 0.0171]
]}

###

Conditions: in ethyl acetate, 323.15 K

{"columns": ["Sample Smiles", "solubility (mole fraction)"],
 "data": [
  ["CCOc1ccccc1C(N)=O", 0.0251]
]}

###

Settings: in ethanol, 323.15 K

{"columns": ["Sample Smiles", "solubility (mole fraction)"],
 "data": [
  ["CCOc1ccccc1C(N)=O", 0.0486]
]}

###

Settings: in isobutanol, 323.15 K

{"columns": ["Sample Smiles", "solubility (mole fraction)"],
 "data": [
  ["CCOc1ccccc1C(N)=O", 0.0454]
]}

###

Conditions: in isobutanol, 313.15 K
Observable: solubility (mole fraction)

{"columns": ["Sample Smiles", "Test Value"],
 "data": [
  ["CCOc1ccccc1C(N)=O", 0.0273]
]}

###

Conditions: in ethyl acetate, 308.15 K

{"columns": ["Sample Smiles", "solubility (mole fraction)"],
 "data": [
  ["CCOc1ccccc1C(N)=O", 0.0112]
]}

###

Conditions: in acetonitrile, 303.15 K

{"columns": ["Sample Smiles", "solubility (mole fraction)"],
 "data": [
  ["CCOc1ccccc1C(N)=O", 0.0132]
]}

###

Details: in ethyl acetate, 318.15 K

{"columns": ["Sample Smiles", "solubility (mole fraction)"],
 "data": [
  ["CCOc1ccccc1C(N)=O", 0.0196]
]}

###

Conditions: in acetonitrile, 318.15 K

{"columns": ["Sample Smiles", "solubility (mole fraction)"],
 "data": [
  ["CCOc1ccccc1C(N)=O", 0.0302]
]}

###

Conditions: in acetonitrile, 308.15 K

{"columns": ["Sample Smiles", "solubility (mole fraction)"],
 "data": [
  ["CCOc1ccccc1C(N)=O", 0.0176]
]}

###

Settings: in methanol, 323.15 K
Observable: solubility (mole fraction)

{"columns": ["Sample Smiles", "Observable", "Test Value"],
 "data": [
  ["CCOc1ccccc1C(N)=O", "solubility (mole fraction)", 0.0597]
]}

###

Settings: in ethanol, 308.15 K
Observable: solubility (mole fraction)

{"columns": ["Sample Smiles", "Observable", "Test Value"],
 "data": [
  ["CCOc1ccccc1C(N)=O", "solubility (mole fraction)", 0.0265]
]}

###

Settings: in n-propanol, 318.15 K

{"columns": ["Sample Smiles", "solubility (mole fraction)"],
 "data": [
  ["CCOc1ccccc1C(N)=O", 0.0389]
]}

###

Details: in n-propanol, 293.15 K
Observable: solubility (mole fraction)

{"columns": ["Sample Smiles", "Test Value"],
 "data": [
  ["CCOc1ccccc1C(N)=O", 0.0113]
]}

###

Conditions: in acetonitrile, 323.15 K

{"columns": ["Sample Smiles", "solubility (mole fraction)"],
 "data": [
  ["CCOc1ccccc1C(N)=O", 0.0398]
]}

###

Conditions: in methanol, 318.15 K

{"columns": ["Sample Smiles", "solubility (mole fraction)"],
 "data": [
  ["CCOc1ccccc1C(N)=O", 0.0492]
]}

###

Conditions: in acetonitrile, 288.15 K
Observable: solubility (mole fraction)

{"columns": ["Sample Smiles", "Test Value"],
 "data": [
  ["CCOc1ccccc1C(N)=O", 0.00524]
]}

###

Conditions: in ethanol, 288.15 K

{"columns": ["Sample Smiles", "solubility (mole fraction)"],
 "data": [
  ["CCOc1ccccc1C(N)=O", 0.011]
]}

###

Settings: in n-propanol, 298.15 K

{"columns": ["Sample Smiles", "solubility (mole fraction)"],
 "data": [
  ["CCOc1ccccc1C(N)=O", 0.0142]
]}

###

Conditions: in isobutanol, 303.15 K
Observable: solubility (mole fraction)

{"columns": ["Sample Smiles", "Test Value"],
 "data": [
  ["CCOc1ccccc1C(N)=O", 0.0162]
]}
